All values here come from PubChem BioAssay AID2060627.

- Test system: 156681-154-R-J1-PDC complex spheroid viability
- measurementProtocol: Anticancer human tumor 156681-154-R-J1-PDC patient-derived melanoma cell line growth inhibition [CLK]; active = viability on the fitted dose curve at most 10% of control; inactive = the rest
- experimentalConditions: second compound 0.316 µM; first compound 10 µM
The categories you may choose from are yes (1) for active, no (0) for inactive

Examples with answers:
compound: C=C(F)C(=O)N1CCN(c2nc(OCC3CCCN3C)nc3c2CCN(c2cccc4cccc(Cl)c24)C3)CC1CC#N (stereo not given) + CNC(=O)c1ccc(Nc2nc(OC3CCCC3)c3c(-c4ccc5nc(C)oc5c4)c[nH]c3n2)c(OC)c1
label: yes (1)
--
compound: CC1(C)CCC(CN2CCN(c3ccc(C(=O)NS(=O)(=O)c4ccc(NCC5CCOCC5)c([N+](=O)[O-])c4)c(Oc4cnc5[nH]ccc5c4)c3)CC2)=C(c2ccc(Cl)cc2)C1 + CNC(=O)c1ccc(Nc2nc(OC3CCCC3)c3c(-c4ccc5nc(C)oc5c4)c[nH]c3n2)c(OC)c1
label: yes (1)
--
compound: Nc1ccn(C2OC(CO)C(O)C2(F)F)c(=O)n1 (stereo not given) + CN1CCN(c2cc(C(=O)Nc3cc4cc(-c5cnn(C)c5)ccc4cn3)ccn2)CC1
label: no (0)

Q: For O=c1[nH]cc(F)c(=O)[nH]1 + CN1CCN(c2cc(C(=O)Nc3cc4cc(-c5cnn(C)c5)ccc4cn3)ccn2)CC1 , which call appears in the assay record?
A: no (0)

Q: For C=CC(=O)N1CCN(c2nc(=O)n(-c3c(C)ccnc3C(C)C)c3nc(-c4c(O)cccc4F)c(F)cc23)C(C)C1 (stereo not given) + CNC(=O)c1ccc(Nc2nc(OC3CCCC3)c3c(-c4ccc5nc(C)oc5c4)c[nH]c3n2)c(OC)c1 , which call appears in the assay record?
A: no (0)

====

- Test system: 156681-154-R-J1-PDC complex spheroid viability
- measurementProtocol: Anticancer human tumor 156681-154-R-J1-PDC cell line growth inhibition [CLK];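 also: spheroids exposed to the agents for seven days; 100% = DMSO vehicle control viability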
- experimentalConditions: second compound 10 µM; first compound 1 µM; active compounds read low
quantityMeasured: viability, T/C (%)
A number alone suffices; assume %.

Examples with their reported viability, T/C follow.
compound: CC(=O)O[C@H]1C(=O)[C@@]2(C)[C@H]([C@H](OC(=O)c3ccccc3)[C@]3(O)C[C@H](OC(=O)[C@H](O)[C@@H](NC(=O)c4ccccc4)c4ccccc4)C(C)=C1C3(C)C)[C@]1(OC(C)=O)CO[C@@H]1C[C@@H]2O + CNC(=O)c1ccc(Nc2nc(OC3CCCC3)c3c(-c4ccc5nc(C)oc5c4)c[nH]c3n2)c(OC)c1
measured: 47.1

compound: CCc1c2c(nc3ccc(O)cc13)-c1cc3c(c(=O)n1C2)COC(=O)[C@]3(O)CC + CNC(=O)c1ccc(Nc2nc(OC3CCCC3)c3c(-c4ccc5nc(C)oc5c4)c[nH]c3n2)c(OC)c1
measured: 1.61

Consider C=CC(=O)N1CCN(c2nc(=O)n(-c3c(C)ccnc3C(C)C)c3nc(-c4c(O)cccc4F)c(F)cc23)C(C)C1 (stereo not given) + CNC(=O)c1ccc(Nc2nc(OC3CCCC3)c3c(-c4ccc5nc(C)oc5c4)c[nH]c3n2)c(OC)c1 . Its measured viability, T/C is 36.3

Consider CC1COCCN1c1cc(C2(S(C)(=N)=O)CC2)nc(-c2ccnc3[nH]ccc23)n1 (stereo not given) + CN1CCN(c2cc(C(=O)Nc3cc4cc(-c5cnn(C)c5)ccc4cn3)ccn2)CC1 . Its measured viability, T/C is 1.26

Consider C=C(F)C(=O)N1CCN(c2nc(OCC3CCCN3C)nc3c2CCN(c2cccc4cccc(Cl)c24)C3)CC1CC#N (stereo not given) + CNC(=O)c1ccc(Nc2nc(OC3CCCC3)c3c(-c4ccc5nc(C)oc5c4)c[nH]c3n2)c(OC)c1 . Its measured viability, T/C is 40.4

Consider COc1c(OCCCN2CCOCC2)ccc2c3n(c(=NC(=O)c4cnc(N)nc4)nc12)CCN3 + CNC(=O)c1ccc(Nc2nc(OC3CCCC3)c3c(-c4ccc5nc(C)oc5c4)c[nH]c3n2)c(OC)c1 . Its measured viability, T/C is 0.31

Consider Nc1ccn(C2OC(CO)C(O)C2(F)F)c(=O)n1 (stereo not given) + CNC(=O)c1ccc(Nc2nc(OC3CCCC3)c3c(-c4ccc5nc(C)oc5c4)c[nH]c3n2)c(OC)c1 . Its measured viability, T/C is 9.99

Consider CC1(C)CCC(CN2CCN(c3ccc(C(=O)NS(=O)(=O)c4ccc(NCC5CCOCC5)c([N+](=O)[O-])c4)c(Oc4cnc5[nH]ccc5c4)c3)CC2)=C(c2ccc(Cl)cc2)C1 + CNC(=O)c1ccc(Nc2nc(OC3CCCC3)c3c(-c4ccc5nc(C)oc5c4)c[nH]c3n2)c(OC)c1 . Its measured viability, T/C is 41.4

Consider COc1c(OCCCN2CCOCC2)ccc2c3n(c(=NC(=O)c4cnc(N)nc4)nc12)CCN3 + CN1CCN(c2cc(C(=O)Nc3cc4cc(-c5cnn(C)c5)ccc4cn3)ccn2)CC1 . Its measured viability, T/C is 0.71

Consider CCc1c2c(nc3ccc(O)cc13)-c1cc3c(c(=O)n1C2)COC(=O)[C@]3(O)CC + CN1CCN(c2cc(C(=O)Nc3cc4cc(-c5cnn(C)c5)ccc4cn3)ccn2)CC1 . Its measured viability, T/C is 2.01
